These entries and their values trace back to a collection of fitness landscapes (doi:10.1126/science.1257360).

I'd be grateful if you could share measured enrichment ratio for these entries.
B1: PhoQ; a variant is named by its letters at X, in order, P23837 (parent)
chain: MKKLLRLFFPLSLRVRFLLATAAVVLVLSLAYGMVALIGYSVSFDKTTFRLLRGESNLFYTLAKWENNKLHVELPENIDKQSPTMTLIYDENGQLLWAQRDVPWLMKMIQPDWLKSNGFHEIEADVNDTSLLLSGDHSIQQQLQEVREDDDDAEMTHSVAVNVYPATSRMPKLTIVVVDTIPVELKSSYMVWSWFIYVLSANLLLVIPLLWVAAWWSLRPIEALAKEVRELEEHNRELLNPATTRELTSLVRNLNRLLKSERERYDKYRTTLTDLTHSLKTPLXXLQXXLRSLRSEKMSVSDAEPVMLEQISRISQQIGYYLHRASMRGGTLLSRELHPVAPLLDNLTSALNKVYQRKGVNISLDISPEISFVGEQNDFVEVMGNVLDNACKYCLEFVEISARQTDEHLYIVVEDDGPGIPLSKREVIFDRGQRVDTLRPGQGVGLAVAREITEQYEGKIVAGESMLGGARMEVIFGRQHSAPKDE

Variants of: B1
Test: enrichment ratio after two sorts for PhoP signalling (ratio (wild type AVST 3.29)); higher = more functional
Settings: with PhoP (E. coli)
In all, about 140,000 sequences were measured (“enrichment ratio after two sorts for PhoP signalling”: median about 0, highest 2% from about 11 on). This excerpt belongs to a sample that is enriched for the highest values.

enrichment ratio reading for `MGLS` : 5.14

Noted for `LSQM` : its enrichment ratio reads ≤ 0.25

The recorded enrichment ratio for `TTGD` is 0.456

Consider `TKRF` . Its measured enrichment ratio is ≤ 0.25

// enrichment ratio value for `GGNT` : ≤ 0.25

Quick note, enrichment ratio for `KLYL` landed at ≤ 0.25

So, `RGAT` ? Its enrichment ratio was ≤ 0.25

Input `MPYA` . Output enrichment ratio: ≤ 0.25

Summary for this variant, `VAKP` : enrichment ratio is ≤ 0.25

The variant identified as `EFMR` registered its enrichment ratio at ≤ 0.25

Record `ADVV` , field enrichment ratio: 8.21

enrichment ratio recorded for this variant, `AFWS` , is ≤ 0.25

Entry `EQSM` , enrichment ratio reported as ≤ 0.25

Notebook: `MNNL` , enrichment ratio read as 0.29

Item: `SITM` | enrichment ratio: 22.9

Form field enrichment ratio, entry `KSFL` : ≤ 0.25

Sure, the documented enrichment ratio for `YTGM` is ≤ 0.25

The value of enrichment ratio measured for the variant `IANT` turned out to be ≤ 0.25

// recorded enrichment ratio for `TGNY` : 16.9

For this variant ( `KHQI` ), measured enrichment ratio is ≤ 0.25

The variant listed as `TCIT` shows enrichment ratio equal to ≤ 0.25

The recorded enrichment ratio for entry `GNDM` equals ≤ 0.25

Given item `FECY` , the value recorded as its enrichment ratio is ≤ 0.25

Per the records, this variant ( `SEIE` ) has enrichment ratio equal to ≤ 0.25

Documented enrichment ratio of `TIYR` : 2.57

variant `AWVV` , enrichment ratio observed: ≤ 0.25

Reported enrichment ratio of `MMIQ` : ≤ 0.25

Record summary for `AIMC` : reported enrichment ratio = ≤ 0.25

enrichment ratio for `TIGR` is 5.97

Entry `ANMC` , enrichment ratio reported as 22.9

Notebook: `RESM` , enrichment ratio read as ≤ 0.25

Record `MGNK` . Reported enrichment ratio: ≤ 0.25

Notebook: `IDNN` , enrichment ratio read as ≤ 0.25

Record summary for `MKLI` : reported enrichment ratio = 3.78

Sure, the documented enrichment ratio for `MEFL` is 8.98

# variant `SIRL` ; its enrichment ratio = ≤ 0.25

`KQRD` yielded enrichment ratio of ≤ 0.25

Lab book: enrichment ratio of `MRHM` noted as ≤ 0.25

Looking up `MEGV` , I found its enrichment ratio recorded as ≤ 0.25

Lab note: measured enrichment ratio of `VDRE` was ≤ 0.25

Query `TTGM` yields enrichment ratio of 28.6

Per the records, this variant ( `KCLK` ) has enrichment ratio equal to ≤ 0.25

response.value for `ADMC` (field: enrichment ratio) = 2.74

Query `MGDK` yields enrichment ratio of ≤ 0.25

The variant `YWPF` showed enrichment ratio equal to ≤ 0.25

Form: variant = `PRCN` ; enrichment ratio = ≤ 0.25

Lab note: measured enrichment ratio of `MEYL` was 3.47

Entry `SEFQ` — recorded enrichment ratio = 6.8

Form field enrichment ratio, entry `WRGV` : ≤ 0.25

# enrichment ratio of `TINH` = 34.4

The measured enrichment ratio associated with `TIQR` reads 16

Record `EETH` , field enrichment ratio: ≤ 0.25

Record `MCGV` . Reported enrichment ratio: 13.4

In plain terms, `LRFQ` has a documented enrichment ratio of ≤ 0.25

According to the records, this variant `GGLI` displays enrichment ratio of 11.9

`YHLI` has a reported enrichment ratio of ≤ 0.25

// enrichment ratio value for `HHAG` : ≤ 0.25

Value of measured enrichment ratio for the entry `RIEH` : ≤ 0.25

Record `TCAN` . Reported enrichment ratio: 25.6

// enrichment ratio lookup, variant = `GGNY` , result: ≤ 0.25

Reported enrichment ratio ( `EFMI` ) = ≤ 0.25

Recorded enrichment ratio (variant `ANMG` ): ≤ 0.25

Notebook: `NILI` , enrichment ratio read as 0.917

# enrichment ratio (variant: `INIV` ) is ≤ 0.25

// enrichment ratio lookup, variant = `FPRV` , result: ≤ 0.25

Lab note: `HVSC` gave enrichment ratio of ≤ 0.25

Quick note, enrichment ratio for `KQAV` landed at ≤ 0.25

Per the records, this variant ( `VRWV` ) has enrichment ratio equal to ≤ 0.25

The recorded enrichment ratio for `AKAH` is 4.55

Value of measured enrichment ratio for the entry `VMYN` : ≤ 0.25

Documented enrichment ratio of `ADHN` : ≤ 0.25

Lab note: `MSCN` gave enrichment ratio of 1.97

# enrichment ratio (variant: `IEAT` ) is ≤ 0.25

According to the records, this variant `TIEH` displays enrichment ratio of 27.9

Noted for `RGNT` : its enrichment ratio reads ≤ 0.25

Short answer for `SRTM` : enrichment ratio was 1.44

Noted for `INCV` : its enrichment ratio reads ≤ 0.25

The measured enrichment ratio associated with `MEFD` reads ≤ 0.25

For reference, reported enrichment ratio for `TKLI` stands at 13

Per the records, this variant ( `TINT` ) has enrichment ratio equal to 4.95

The variant `TWGP` showed enrichment ratio equal to ≤ 0.25

Please fill in: enrichment ratio reported for `MLNF` = ≤ 0.25

`TCSC` has a reported enrichment ratio of 12.3

Per the record, `WIQR` has enrichment ratio of ≤ 0.25

// `EASM` : enrichment ratio value = ≤ 0.25

Lab note: measured enrichment ratio of `KCAN` was ≤ 0.25

// `NGIL` : enrichment ratio value = ≤ 0.25

Reported enrichment ratio ( `TITD` ) = ≤ 0.25

Lab note: `MSHM` gave enrichment ratio of 22

The variant listed as `TIMD` shows enrichment ratio equal to ≤ 0.25

The recorded enrichment ratio for entry `SICL` equals 11.3
